Assay: Particle sizing assay of in vitro formulations (dynamic light scattering, DynaPro plate reader)
Type: physicochemical
Conditions: in vitro formulation a: Cationic lipid/Example 56/DSPC/Chol 45/10/15/30 wt %, Lipid:siRNA 25:1
REPORTED_METRIC: Size (nm)

SMILES_STRING: CCCCC/C=C\C/C=C\CCCCCCCCOCC(COCCCCCCCC/C=C\C/C=C\CCCCC)N1CCN(CCn2ccnc2)CC1
ENDPOINT_VALUE: 118

SMILES_STRING: CCCCC/C=C\C/C=C\CCCCCCCCOCC(COCCCCCCCC/C=C\C/C=C\CCCCC)NCc1cccc(CN2CCN(C)CC2)c1
ENDPOINT_VALUE: 116

SMILES_STRING: CCCCC/C=C\C/C=C\CCCCCCCCOCC(COCCCCCCCC/C=C\C/C=C\CCCCC)NCc1cccc(CN2CCCC2)c1
ENDPOINT_VALUE: 146

SMILES_STRING: CCCCC/C=C\C/C=C\CCCCCCCCOCC(COCCCCCCCC/C=C\C/C=C\CCCCC)N1CCN(CCN2CCCC2)CC1
ENDPOINT_VALUE: 111.6

Entry source: patent US20100055168A1
